- protocol-notes: solubility of the tromethamine salt
- Type: physicochemical
- measurement-parameters: aqueous buffer; at pH 6.5; read-out: solubility
Where a name gives a salt, the structure may show the parent alone.
quantity: solubility

molecule: O=C(O)CCC/C=C/CC1C(O)CC(O)C1/C=C/C(O)CCc1ccccc1 (stereo not shown) [tromethamine salt of bimatoprost acid]
quantity: solubility
reported-measurement: > 250 mg/mL
